System: KRAS patient-derived spheroids with HUVEC/MSC, viability;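 note: spheroids exposed to agents for 7 days; 100% = DMSO vehicle control viability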
experimental details: Anticancer human tumor 323965-272-R-J2-PDC patient-derived pancreatic carcinoma cell line growth inhibition [KRAS2]
experimental conditions: second compound 1 µM; first compound 1 µM; active compounds read low
Text: Multicellular complex tumor spheroid response to RAS pathway inhibitors in combination with a targeted agents in patient-derived cell lines with oncogenic KRAS variants from multiple cancer types A high-throughput screen of multi-cell type tumor spheroids was designed to identify active combinations of targeted small molecules and KRAS pathway inhibitors. […] Compounds. […] If the clinical Cmax for an agent had not been determined, the highest concentration tested was 10 microM. […]
viability, T/C values by entry

[
  {
    "molecule": "CC(C)NCC(C(=O)N1CCN(c2ncnc3c2C(C)CC3O)CC1)c1ccc(Cl)cc1 (stereo not given) + C=CC(=O)N1CCN(c2nc(OCC3CCCN3C)nc3c2CCN(c2cccc4cccc(C)c24)C3)CC1CC#N",
    "endpoint result": "33.4%"
  },
  {
    "molecule": "COc1cc2nccc(Oc3ccc(NC(=O)C4(C(=O)Nc5ccc(F)cc5)CC4)cc3)c2cc1OC + C=CC(=O)N1CCN(c2nc(=O)n(-c3c(C)ccnc3C(C)C)c3nc(-c4c(O)cccc4F)c(F)cc23)C(C)C1",
    "endpoint result": "61.7%"
  },
  {
    "molecule": "Cn1nccc1Nc1nccc(-c2cc3c(s2)C(C)(C)N(CCN2CCOCC2)C3=O)n1 + C=CC(=O)N1CCN(c2nc(OCC3CCCN3C)nc3c2CCN(c2cccc4cccc(C)c24)C3)CC1CC#N",
    "endpoint result": "35.7%"
  },
  {
    "molecule": "CCN1CCN(Cc2ccc(Nc3ncc(F)c(-c4cc(F)c5nc(C)n(C(C)C)c5c4)n3)nc2)CC1 + C=CC(=O)N1CCN(c2nc(=O)n(-c3c(C)ccnc3C(C)C)c3nc(-c4c(O)cccc4F)c(F)cc23)C(C)C1",
    "endpoint result": "48.8%"
  }
]

Turning now to a further molecule:
Inquiry: Which viability, T/C is reported for this molecule? COc1cc2nccc(Oc3ccc(NC(=O)C4(C(=O)Nc5ccc(F)cc5)CC4)cc3)c2cc1OC + COc1cc2nc(C)nc(NC(C)c3cc(N)cc(C(F)(F)F)c3)c2cc1OC1CCOC1
Reply text: 82.8%

Cited source for all entries: PubChem BioAssay AID1963869
